Data origin: ChEMBL document CHEMBL1932983

Target: Uncharacterized protein (Sus scrofa)
Experiment: Inhibition of pig kidney trehalase at 1000 uM
assay.endpoint: inhibition (%)
Use % as the unit, but write only the number.

Guide cases for inhibition, answers given:
Need inhibition of OC[C@H]1CNC[C@@H](O)[C@@H](O)[C@@H]1O , thanks.
16.6

And the next one, C[C@@H]1CNC[C@@H](O)[C@@H](O)[C@@H]1O ?
39.9

And the next one, OC[C@@H]1CNC[C@@H](O)[C@@H](O)[C@@H]1O ?
17.2

Note: attention shifts to another entry.
Need inhibition of C[C@H]1CNC[C@@H](O)[C@@H](O)[C@@H]1O , thanks.
22.2

====

System: Penicillium decumbens
Assay: Inhibition of Penicillium decumbens alpha-L-rhamnosidase at 1000 uM
This listing pairs compounds with measured inhibition.
Use % as the unit, but write only the number.

Guide cases for inhibition, answers given:
Need inhibition of OC[C@@H]1CNC[C@@H](O)[C@@H](O)[C@@H]1O , thanks.
1.5

And the next one, C[C@@H]1CNC[C@@H](O)[C@@H](O)[C@@H]1O ?
20.6

And the next one, C[C@H]1CNC[C@@H](O)[C@@H](O)[C@@H]1O ?
6.8

Next:
Need inhibition of OC[C@H]1CNC[C@@H](O)[C@@H](O)[C@@H]1O , thanks.
0.9

====

This listing pairs compounds with measured inhibition.
System: Helix pomatia
Experiment: Inhibition of snail beta-mannosidase at 1000 uM
Use % as the unit, but write only the number.

Need inhibition of OC[C@@H]1CNC[C@@H](O)[C@@H](O)[C@@H]1O , thanks.
0

And the next one, C[C@H]1CNC[C@@H](O)[C@@H](O)[C@@H]1O ?
4.3

And the next one, OC[C@H]1CNC[C@@H](O)[C@@H](O)[C@@H]1O ?
0

And the next one, C[C@@H]1CNC[C@@H](O)[C@@H](O)[C@@H]1O ?
0.4

====

Assay: Inhibition of jack beans alpha-mannosidase
Set-up: species or system Canavalia ensiformis
assay.endpoint: pIC50
Kindly note that pIC50 refers to -log10 of the concentration in mol/L and answer with the value alone.

Guide cases for pIC50, answers given:
Need pIC50 of OC[C@@H]1CNC[C@@H](O)[C@@H](O)[C@@H]1O , thanks.
3.09

And the next one, C[C@@H]1CNC[C@@H](O)[C@@H](O)[C@@H]1O ?
4.00

Next:
Need pIC50 of C[C@H]1CNC[C@@H](O)[C@@H](O)[C@@H]1O , thanks.
3.47

====

This listing pairs compounds with measured inhibition.
Tested on: Aspergillus niger
Assay: Inhibition of Aspergillus niger amyloglucosidase at 1000 uM
# answer = value followed by unit

Guide cases for inhibition, answers given:
Need inhibition of C[C@H]1CNC[C@@H](O)[C@@H](O)[C@@H]1O , thanks.
0%

And the next one, OC[C@@H]1CNC[C@@H](O)[C@@H](O)[C@@H]1O ?
0.3%

And the next one, OC[C@H]1CNC[C@@H](O)[C@@H](O)[C@@H]1O ?
14.2%

Note: attention shifts to another entry.
Need inhibition of C[C@@H]1CNC[C@@H](O)[C@@H](O)[C@@H]1O , thanks.
6.9%

====

Experiment: Inhibition of coffee beans alpha-galactosidase
Parameters: species or system Coffea
assay.endpoint: IC50 (µM)
Use µM as the unit, but write only the number.

Need IC50 of OC[C@@H]1CNC[C@@H](O)[C@@H](O)[C@@H]1O , thanks.
65

Note: attention shifts to another entry.
Need IC50 of C[C@@H]1CNC[C@@H](O)[C@@H](O)[C@@H]1O , thanks.
14
